# Target Or System: T1, Human His-GDF15: HIS-tagged human GDF15 (human, UniProt Q99988 195-308)
# T1 construct: not shown: His tag
# T1 sequence: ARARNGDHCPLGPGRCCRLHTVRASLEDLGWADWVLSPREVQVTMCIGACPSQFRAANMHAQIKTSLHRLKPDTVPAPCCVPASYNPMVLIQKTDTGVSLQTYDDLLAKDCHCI
# Assay Overview: Biacore SPR, IgG captured via anti-human Fc, GDF15 in flow
Criterion: koff strictly under 0.0005 s⁻¹. Met: true. Not met: false.

A selection of reference data follows.
Binder	Label
ABGDF15-G (antibody, human IgG1, kappa, V domains shown, captured through anti-human Fc in the Biacore assay) VH: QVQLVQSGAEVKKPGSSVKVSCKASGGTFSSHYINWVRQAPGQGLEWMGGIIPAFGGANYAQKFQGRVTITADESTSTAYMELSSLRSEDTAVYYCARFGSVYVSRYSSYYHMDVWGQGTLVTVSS VL: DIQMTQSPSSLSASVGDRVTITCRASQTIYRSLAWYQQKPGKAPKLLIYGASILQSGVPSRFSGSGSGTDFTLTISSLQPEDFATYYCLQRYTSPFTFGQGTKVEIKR	false
ABGDF15-A (antibody, human IgG1, kappa, V domains shown, captured through anti-human Fc in the Biacore assay) VH: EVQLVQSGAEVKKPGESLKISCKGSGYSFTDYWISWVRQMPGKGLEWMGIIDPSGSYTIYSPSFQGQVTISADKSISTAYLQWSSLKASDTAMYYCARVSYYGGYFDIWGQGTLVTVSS VL: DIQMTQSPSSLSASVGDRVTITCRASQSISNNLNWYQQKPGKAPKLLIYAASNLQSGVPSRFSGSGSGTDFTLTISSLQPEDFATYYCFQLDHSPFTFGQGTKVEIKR	true
ABGDF15-C (antibody, human IgG1, lambda, V domains shown, captured through anti-human Fc in the Biacore assay) VH: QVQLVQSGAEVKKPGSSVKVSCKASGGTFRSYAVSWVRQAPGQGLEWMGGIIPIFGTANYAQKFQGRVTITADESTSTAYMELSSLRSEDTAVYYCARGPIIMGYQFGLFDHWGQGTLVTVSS VL: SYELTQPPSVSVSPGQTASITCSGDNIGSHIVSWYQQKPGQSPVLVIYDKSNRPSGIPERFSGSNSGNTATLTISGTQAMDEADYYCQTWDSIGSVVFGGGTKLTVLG	true
ABGDF15-B (antibody, human IgG1, lambda, V domains shown, captured through anti-human Fc in the Biacore assay) VH: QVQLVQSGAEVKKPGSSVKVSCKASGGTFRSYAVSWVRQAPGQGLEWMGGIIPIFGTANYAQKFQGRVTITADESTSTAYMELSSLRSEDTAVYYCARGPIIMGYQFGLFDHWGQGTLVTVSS VL: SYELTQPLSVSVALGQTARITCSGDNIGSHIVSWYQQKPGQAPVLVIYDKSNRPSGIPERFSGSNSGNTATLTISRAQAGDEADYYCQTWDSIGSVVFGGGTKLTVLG	false

Now turn to the next binder.
Enquiry: Is koff of ABGDF15-F (antibody, human IgG1, lambda, V domains shown, captured through anti-human Fc in the Biacore assay) VH: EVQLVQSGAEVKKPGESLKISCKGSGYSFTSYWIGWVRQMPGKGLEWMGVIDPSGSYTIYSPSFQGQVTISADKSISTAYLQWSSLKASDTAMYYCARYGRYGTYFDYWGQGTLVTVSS VL: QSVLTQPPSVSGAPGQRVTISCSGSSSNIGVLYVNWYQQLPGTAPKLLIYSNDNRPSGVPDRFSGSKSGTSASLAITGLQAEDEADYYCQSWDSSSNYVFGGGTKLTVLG strictly below 0.0005 s⁻¹?
Return: true

Hey, just so you know, these numbers are from patent US20190135908A1.
